Overview of reported normalised response across a group of compounds:
- Tested on: BT-474
- ASSAY DETAILS: normalised response (% of control), CellTiter-Glo; higher = more viable cells (100 = DMSO, 0 = benzethonium chloride kill control)
- EXPERIMENTAL SETUP: incubation time: 72 h

compound="CCOc1cc2ncc(C#N)c(Nc3ccc(OCc4ccccn4)c(Cl)c3)c2cc1NC(=O)/C=C/CN(C)C [Neratinib] (100 nM)" target_system=BT-474 result=102%
compound="COC1=C2C[C@@H](C)C[C@H](OC)[C@H](O)[C@@H](C)/C=C(\\C)[C@H](OC(N)=O)[C@@H](OC)/C=C\\C=C(/C)C(=O)NC(=CC1=O)C2=O [Geldanamycin] (1000 nM)" target_system=BT-474 result=101%

Value wanted: normalised response (BT-474) of entry C[C@@H]1CCN(C(=O)CC#N)C[C@@H]1N(C)c1ncnc2[nH]ccc12 [Tofacitinib] (5 nM)
114%

Thanks! And O=c1[nH]c(=O)n([C@H]2C[C@H](O)[C@@H](CO)O2)cc1F [Floxuridine] (1 nM) ?
104%
